// cross-source set; read-out = IC50; system = Cyclin-dependent kinase 7 (Homo sapiens, UniProt P50613)

Measured IC50 for this entry C=CC(=O)Nc1ccc(NC(=O)[C@H]2C[C@@H](Nc3ncc(Cl)c(-c4c[nH]c5ccccc45)n3)CN(C)C2)cc1 (relative stereo) on Cyclin-dependent kinase 7 (Homo sapiens, UniProt P50613): < 100 nM

Measured IC50 for this entry NC(=O)c1ccc(Nc2ncc3cc4n(c3n2)C2(CCCCC2)C(=O)NN4)cc1 on Cyclin-dependent kinase 7 (Homo sapiens, UniProt P50613): 579 nM

Measured IC50 for this entry C=CC(=O)Nc1cccc(C(=O)Nc2cccc(Nc3n[nH]c4c3CN(C(=O)N[C@H](CN(C)C)c3ccccc3)C4(C)C)c2)c1 on Cyclin-dependent kinase 7 (Homo sapiens, UniProt P50613): < 100 nM

Measured IC50 for this entry Cc1nc(C)c(-c2nc(Nc3cccc(NC(=O)c4ccc(NC(=O)/C=C/CN(C)C)cc4)c3)ncc2Cl)s1 on Cyclin-dependent kinase 7 (Homo sapiens, UniProt P50613): 92.3 nM

Measured IC50 for this entry N#Cc1cnc(N[C@@H]2CCC[C@H](NC(=O)c3ccc(N)cn3)C2)nc1-c1c[nH]c2ccccc12 on Cyclin-dependent kinase 7 (Homo sapiens, UniProt P50613): < 100 nM

Measured IC50 for this entry Nc1ccc(C(=O)N[C@H]2CCC[C@@H](Nc3ncc(Cl)c(-c4c[nH]c5ccccc45)n3)C2)c(F)c1 on Cyclin-dependent kinase 7 (Homo sapiens, UniProt P50613): 100 to 1000 nM

Measured IC50 for this entry C=CC(=O)Nc1ccc(C(=O)Nc2cccc(Nc3ncc(Cl)c(-c4c[nH]c5ccccc45)n3)c2)cc1 on Cyclin-dependent kinase 7 (Homo sapiens, UniProt P50613): 40 nM

Measured IC50 for this entry CC1CN(C2CCCC(Nc3ncc(Cl)c(-c4c[nH]c5ccccc45)n3)C2)CCN1C(=O)C=CCN(C)C (stereo not drawn) on Cyclin-dependent kinase 7 (Homo sapiens, UniProt P50613): < 100 nM

Measured IC50 for this entry CN(C)C/C=C/C(=O)Nc1cccc(CN2CCC(Nc3ncc(Cl)c(-c4c[nH]c5ccccc45)n3)CC2)c1 on Cyclin-dependent kinase 7 (Homo sapiens, UniProt P50613): < 100 nM

----------
pIC50: −log10 of the molar value.
// cross-source set; read-out = pIC50; system = Cyclin-dependent kinase 7 (Homo sapiens)
# cutoff 6 applies to pIC50; >= gives Met, < gives Not met

Exam item: decide whether the reported pIC50 for CN(C)C/C=C/C(=O)Nc1ccc(C(=O)Nc2cccc(Nc3ncc(Cl)c(-c4cn(C)c5ccccc45)n3)c2)cc1 is at least 6.
Met

Exam item: decide whether the reported pIC50 for C=CC(=O)Nc1ccc(-c2ccc(C(C)C(=O)Nc3cc(C4CC4)[nH]n3)cc2)cc1 (single isomer, unassigned) is at least 6.
Not met

Exam item: decide whether the reported pIC50 for Cc1cc(NC(=O)/C=C/CN(C)C)ccc1C(=O)N1CCC(Nc2ncc(Cl)c(-c3c[nH]c4ccccc34)n2)CC1 is at least 6.
Met

Exam item: decide whether the reported pIC50 for C=CC(=O)Nc1ccc2c(Nc3n[nH]c4c3CN(C(=O)N[C@H](CN(C)C)C3CCOCC3)C4(C)C)nccc2c1 is at least 6.
Met

----------
pIC50: −log10 of the molar value.
// cross-source set; read-out = pIC50; system = Cyclin-dependent kinase 7 (Homo sapiens)

Measured pIC50 for this entry O=C(N[C@H]1CCC[C@@H](Nc2ncc(Cl)c(-c3c[nH]c4ccccc34)n2)C1)C1CCN(C(=O)/C=C/CN2CCOCC2)CC1 on Cyclin-dependent kinase 7 (Homo sapiens): < 6.00

Measured pIC50 for this entry C=CC(=O)N1CC(N(C)[C@H]2CCC[C@@H](Nc3ncc(Cl)c(-c4c[nH]c5ccccc45)n3)C2)C1 on Cyclin-dependent kinase 7 (Homo sapiens): > 7.00

Measured pIC50 for this entry CN(C)C/C=C/C(=O)Nc1ccc(C(=O)Nc2cccc(Nc3ncc(Cl)c(-c4cccc5[nH]ccc45)n3)c2)cc1 on Cyclin-dependent kinase 7 (Homo sapiens): 6.38

Measured pIC50 for this entry Nc1ccc(C(=O)N[C@H]2CCC[C@@H](Nc3ncc(C4CC4)c(-c4c[nH]c5ccccc45)n3)C2)cc1 on Cyclin-dependent kinase 7 (Homo sapiens): 6.00 to 7.00

Measured pIC50 for this entry C=CC(=O)Nc1ccc(C(=O)Nc2n[nH]c3c2CN(C(=O)N[C@H](CN(C)C)c2ccccc2)[C@@H]3C(C)C)cc1 on Cyclin-dependent kinase 7 (Homo sapiens): > 7.00

Measured pIC50 for this entry NS(=O)(=O)c1ccc(Nc2ncc3cc4n(c3n2)C2(C=NN4)CCCCC2)cc1 on Cyclin-dependent kinase 7 (Homo sapiens): 6.64

Measured pIC50 for this entry CCC(=O)Nc1ccc(C(=O)Nc2cccc(Nc3n[nH]c4c3CN(C(=O)N[C@H](CN(C)C)c3ccccc3)C4(C)C)c2)cc1 on Cyclin-dependent kinase 7 (Homo sapiens): > 7.00
